FYI, the data here is from patent US7074789B2.

# key: entry, value: pIC50
testedTarget: Itk (Homo sapiens)
Construct: Kinases are expressed as either kinase domains or full length constructs; made in house
Sequence (Q08881 1-620): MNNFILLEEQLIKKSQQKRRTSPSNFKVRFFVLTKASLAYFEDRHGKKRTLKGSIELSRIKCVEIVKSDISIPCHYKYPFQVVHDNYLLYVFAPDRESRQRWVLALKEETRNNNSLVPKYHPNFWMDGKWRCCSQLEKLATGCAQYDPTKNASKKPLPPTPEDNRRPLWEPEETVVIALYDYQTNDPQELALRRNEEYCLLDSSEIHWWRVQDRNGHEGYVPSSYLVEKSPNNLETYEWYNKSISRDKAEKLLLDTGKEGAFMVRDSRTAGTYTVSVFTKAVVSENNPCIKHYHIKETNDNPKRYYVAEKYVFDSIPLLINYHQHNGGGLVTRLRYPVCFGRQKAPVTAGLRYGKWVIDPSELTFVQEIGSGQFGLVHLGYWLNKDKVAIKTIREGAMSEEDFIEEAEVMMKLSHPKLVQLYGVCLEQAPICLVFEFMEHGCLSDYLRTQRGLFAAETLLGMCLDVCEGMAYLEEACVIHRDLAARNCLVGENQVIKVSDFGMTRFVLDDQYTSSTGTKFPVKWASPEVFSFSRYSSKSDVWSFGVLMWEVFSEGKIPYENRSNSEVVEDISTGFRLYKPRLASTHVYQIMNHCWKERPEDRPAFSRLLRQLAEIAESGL
assay: Kinase inhibition assay (33P transfer), Itk
Assay type: biochemical
conditions: read-out: Itk-1
pIC50: −log10 of the molar value.
propertyMeasured: pIC50

- chemicalStructure: "c1ccc(CNc2nc3ccccc3n2-c2ncnc(Nc3cccc(Cc4nnn[nH]4)c3)n2)cc1"
  assayResult: "5.30 to 6.08"
- chemicalStructure: "O=c1[nH]c2ccccc2n1-c1ncnc(Nc2ncccn2)n1"
  assayResult: "< 4.83"
- chemicalStructure: "COc1cc(Nc2ncnc(Nc3cc(OC)c(OC)c(OC)c3)n2)ccc1OCCN1CCOCC1"
  assayResult: "< 5.06"
- chemicalStructure: "CCOC(=O)CNc1ncnc(N2CCCc3cc(C)ccc32)n1"
  assayResult: "< 4.86"
- chemicalStructure: "O=c1[nH]c2ccccc2n1-c1ncnc(Nc2ccncn2)n1"
  assayResult: "< 4.83"
- chemicalStructure: "COc1cc(Nc2ncnc(-n3c(=O)[nH]c4ccccc43)n2)cc(OC)c1OCCN1CCOCC1"
  assayResult: "5.31 to 6.09"
- chemicalStructure: "CCN(CC)CCOc1ccc(Nc2ncnc(Nc3cc(OC)c(OC)c(OC)c3)n2)cc1OC"
  assayResult: "< 5.04"
- chemicalStructure: "NC(=O)c1ccc(Nc2ncnc(-c3cccnc3NCc3cccs3)n2)cc1"
  assayResult: "4.95 to 5.06"
- chemicalStructure: "Cc1cccc(Nc2ncnc(N3CCCc4ccc(C(F)(F)F)cc43)n2)c1"
  assayResult: "< 4.93"

###

testedTarget: Lck (Homo sapiens)
Construct: Kinases are expressed as either kinase domains or full length constructs; made in house
Sequence (P06239 whole entry, species assumed, the tested form may be a part): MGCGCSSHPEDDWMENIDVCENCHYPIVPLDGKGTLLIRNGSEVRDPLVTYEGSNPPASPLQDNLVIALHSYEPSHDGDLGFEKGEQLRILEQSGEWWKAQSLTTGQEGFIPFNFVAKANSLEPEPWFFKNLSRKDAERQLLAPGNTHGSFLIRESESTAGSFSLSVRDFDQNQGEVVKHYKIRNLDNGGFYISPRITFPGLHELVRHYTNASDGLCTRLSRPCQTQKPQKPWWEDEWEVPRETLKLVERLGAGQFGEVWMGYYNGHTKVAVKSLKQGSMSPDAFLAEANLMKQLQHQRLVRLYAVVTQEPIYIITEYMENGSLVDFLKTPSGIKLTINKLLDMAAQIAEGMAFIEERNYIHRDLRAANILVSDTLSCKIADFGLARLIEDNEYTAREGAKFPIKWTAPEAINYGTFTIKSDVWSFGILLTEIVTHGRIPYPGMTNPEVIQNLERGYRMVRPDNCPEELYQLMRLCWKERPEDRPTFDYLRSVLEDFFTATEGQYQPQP
assay: Kinase inhibition assay (33P transfer), Lck
Type: biochemical
conditions: Table 3; read-out: Lck-1
pIC50: −log10 of the molar value.
propertyMeasured: pIC50

- chemicalStructure: "COc1cccc(Nc2nc3ccccc3n2-c2ncnc(Nc3cc(OC)c(OC)c(OC)c3)n2)c1"
  assayResult: "5.15 to 5.32"
- chemicalStructure: "COc1cc(Nc2ncnc(N3CCCc4ccccc43)n2)cc(OC)c1OC"
  assayResult: "> 5.99"
- chemicalStructure: "COc1cc(Nc2ncnc(-c3ccncc3)n2)cc(OC)c1OC"
  assayResult: "5.15 to 5.93"
- chemicalStructure: "COc1ccc(Nc2ncnc(-n3c(N)nc4ccccc43)n2)cc1O"
  assayResult: "5.16 to 5.94"
- chemicalStructure: "Oc1cccc(Nc2ncnc(-c3ccccc3)n2)c1"
  assayResult: "4.88 to 5.04"
- chemicalStructure: "COc1cc(Nc2ncnc(N(c3ccc(Cl)cc3)c3nc4ccccc4[nH]3)n2)cc(OC)c1OC"
  assayResult: "> 6.10"
- chemicalStructure: "COc1cc(Nc2ncnc(-n3cc(C#N)c4ccccc43)n2)cc(OC)c1OC"
  assayResult: "4.95 to 5.06"
- chemicalStructure: "COc1cc(Nc2ncnc(-n3c(NCc4ccccn4)nc4ccccc43)n2)cc(OC)c1OC"
  assayResult: "< 5.03"
- chemicalStructure: "COc1ccc(Nc2ncnc(N(CC(=O)O)c3ccc4c(c3)OCO4)n2)cc1OC"
  assayResult: "5.08 to 5.25"
- chemicalStructure: "NS(=O)(=O)c1ccc(Nc2ncnc(-n3c(=O)[nH]c4ccccc43)n2)cc1"
  assayResult: "5.20 to 5.98"
- chemicalStructure: "Oc1cccc(Nc2ncnc(Nc3ccc(OCc4ccccc4)cc3)n2)c1"
  assayResult: "< 4.93"
- chemicalStructure: "COc1cc(Nc2ncnc(Nc3cccc(Cl)c3)n2)cc(OC)c1OC"
  assayResult: "5.21 to 5.99"
- chemicalStructure: "COc1cc(Nc2ncnc(-n3c(=O)[nH]c4ccccc43)n2)cc(OC)c1OC"
  assayResult: "< 4.94"
- chemicalStructure: "COc1cc(Nc2ncnc(-n3c(Nc4cccc(C(=O)O)c4)nc4ccccc43)n2)cc(OC)c1OC"
  assayResult: "> 6.11"
- chemicalStructure: "O=c1[nH]c2ccccc2n1-c1ncnc(Nc2ccc(OC(F)(F)F)cc2)n1"
  assayResult: "4.94 to 5.05"
- chemicalStructure: "COc1cc(Nc2ncnc(Nc3ccc4c(c3)OCO4)n2)cc(OC)c1OC"
  assayResult: "> 6.00"
- chemicalStructure: "CNc1ncnc(Nc2cc(OC)c(OC)c(OC)c2)n1"
  assayResult: "4.81 to 4.92"
- chemicalStructure: "Clc1cccc(Nc2ncnc(-n3cccc3)n2)c1"
  assayResult: "< 4.78"

###

# key: entry, value: IC50
testedTarget: c-Met (Homo sapiens, UniProt P08581)
Construct: Kinases are expressed as either kinase domains or full length constructs; made in house
Sequence (P08581 25-1390): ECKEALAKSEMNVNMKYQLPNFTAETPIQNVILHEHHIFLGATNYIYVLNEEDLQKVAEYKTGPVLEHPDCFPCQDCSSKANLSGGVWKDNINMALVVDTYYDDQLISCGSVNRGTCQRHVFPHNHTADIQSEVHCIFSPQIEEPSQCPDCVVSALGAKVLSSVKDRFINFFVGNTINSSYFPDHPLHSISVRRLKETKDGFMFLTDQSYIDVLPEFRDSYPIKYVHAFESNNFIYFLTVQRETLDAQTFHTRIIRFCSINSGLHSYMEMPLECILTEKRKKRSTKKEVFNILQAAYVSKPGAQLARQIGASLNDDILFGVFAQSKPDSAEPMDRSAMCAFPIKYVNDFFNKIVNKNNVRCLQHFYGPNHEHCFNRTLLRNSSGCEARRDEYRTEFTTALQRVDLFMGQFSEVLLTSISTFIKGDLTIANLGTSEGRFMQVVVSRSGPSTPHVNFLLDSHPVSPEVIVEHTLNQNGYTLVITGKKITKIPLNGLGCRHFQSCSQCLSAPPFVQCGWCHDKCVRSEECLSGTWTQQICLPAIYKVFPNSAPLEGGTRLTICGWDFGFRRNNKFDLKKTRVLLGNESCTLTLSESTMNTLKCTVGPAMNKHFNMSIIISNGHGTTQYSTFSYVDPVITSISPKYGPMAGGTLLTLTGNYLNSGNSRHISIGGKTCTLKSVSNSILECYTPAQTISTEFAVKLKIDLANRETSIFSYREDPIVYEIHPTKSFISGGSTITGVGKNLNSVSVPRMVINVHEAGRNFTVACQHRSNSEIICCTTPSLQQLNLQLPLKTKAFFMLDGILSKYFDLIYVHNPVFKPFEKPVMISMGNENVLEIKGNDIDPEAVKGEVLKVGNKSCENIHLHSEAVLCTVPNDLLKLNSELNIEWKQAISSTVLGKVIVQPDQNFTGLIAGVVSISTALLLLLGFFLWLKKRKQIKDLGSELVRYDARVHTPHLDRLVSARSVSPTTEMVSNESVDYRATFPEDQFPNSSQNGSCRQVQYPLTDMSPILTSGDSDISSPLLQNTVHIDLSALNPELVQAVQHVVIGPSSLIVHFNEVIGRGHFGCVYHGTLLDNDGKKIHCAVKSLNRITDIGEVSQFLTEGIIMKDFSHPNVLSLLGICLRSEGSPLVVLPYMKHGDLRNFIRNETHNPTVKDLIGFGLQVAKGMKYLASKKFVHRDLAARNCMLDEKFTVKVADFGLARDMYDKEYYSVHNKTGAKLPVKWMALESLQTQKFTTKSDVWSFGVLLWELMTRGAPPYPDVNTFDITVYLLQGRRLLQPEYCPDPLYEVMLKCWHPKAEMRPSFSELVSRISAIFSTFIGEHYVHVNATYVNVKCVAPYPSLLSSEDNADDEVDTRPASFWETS
assay: Kinase inhibition assay (33P transfer), c-Met
Type: biochemical
conditions: Table 2, kinase inhibition class; read-out: Met-1

- chemicalStructure: "COc1cc(OC)cc(-c2nnc(Nc3ncnc(Nc4cc(OC)c(OC)c(OC)c4)n3)[nH]2)c1"
  IC50: "> 9.37 µM"
- chemicalStructure: "COc1cc(Nc2ncnc(-c3ccnc(NCCCN)c3)n2)cc(OC)c1OC"
  IC50: "> 10.9 µM"
- chemicalStructure: "COc1cc(Nc2ncnc(-c3cccnc3Nc3cccc(C(N)=O)c3)n2)cc(OC)c1OC"
  IC50: "7.39 to 9.5 µM"
- chemicalStructure: "COc1cc(Nc2ncnc(Nc3cccc4ncccc34)n2)cc(OC)c1OC"
  IC50: "> 11.1 µM"
- chemicalStructure: "COc1cc(Nc2ncnc(Nc3cc(OC)c(OC)c(OC)c3)n2)cc(OC)c1OC"
  IC50: "> 10.1 µM"
- chemicalStructure: "COC(=O)Cc1cccc(Nc2ncnc(Nc3ccc(C)c(O)c3)n2)c1"
  IC50: "9.58 to 12.3 µM"
- chemicalStructure: "O=c1[nH]c2ccccc2n1-c1ncnc(Nc2ccccc2[N+](=O)[O-])n1"
  IC50: "10 to 12.9 µM"
- chemicalStructure: "COc1cc(Nc2ncnc(Nc3ccc(Br)c(Cl)c3)n2)cc(OC)c1OC"
  IC50: "> 9.64 µM"
- chemicalStructure: "COc1cc(Nc2ncnc(Nc3cc(-c4ccc(Cl)cc4)n[nH]3)n2)cc(OC)c1OC"
  IC50: "< 0.881 µM"
- chemicalStructure: "COCCOc1ccc(Nc2ncnc(-n3c(N)nc4ccccc43)n2)cc1OCCOC"
  IC50: "> 9.97 µM"
- chemicalStructure: "COc1cccc(NC(=O)Nc2ncnc(Nc3cc(OC)c(OC)c(OC)c3)n2)c1"
  IC50: "8.21 to 10.6 µM"
- chemicalStructure: "COC(=O)c1sccc1Nc1ncnc(Nc2cc(OC)c(OC)c(OC)c2)n1"
  IC50: "8.38 to 10.8 µM"
- chemicalStructure: "COc1cc(Nc2ncnc(N(C/C=C/c3ccccc3)c3ccc(Cl)cc3)n2)cc(OC)c1OC"
  IC50: "> 8.93 µM"
- chemicalStructure: "COc1cc(Nc2ncnc(-n3c(NCc4ccc(N(C)C)cc4)nc4ccccc43)n2)cc(OC)c1OC"
  IC50: "> 8.55 µM"
- chemicalStructure: "Cc1ccc2c(c1)CCCN2c1ncnc(NCCc2c[nH]c3ccccc23)n1"
  IC50: "6.24 to 9.1 µM"
- chemicalStructure: "Cc1ccc(Nc2ncnc(Nc3cccc(CC(=O)O)c3)n2)cc1O"
  IC50: "> 12.8 µM"
- chemicalStructure: "COc1cc(Nc2ncnc(Nc3ccc(N(C)C(C)=O)cc3)n2)cc(OC)c1OC"
  IC50: "> 10.6 µM"

###

testedTarget: Zap-70 (Homo sapiens)
Construct: Kinases are expressed as either kinase domains or full length constructs; made in house
Sequence (P43403 whole entry, species assumed, the tested form may be a part): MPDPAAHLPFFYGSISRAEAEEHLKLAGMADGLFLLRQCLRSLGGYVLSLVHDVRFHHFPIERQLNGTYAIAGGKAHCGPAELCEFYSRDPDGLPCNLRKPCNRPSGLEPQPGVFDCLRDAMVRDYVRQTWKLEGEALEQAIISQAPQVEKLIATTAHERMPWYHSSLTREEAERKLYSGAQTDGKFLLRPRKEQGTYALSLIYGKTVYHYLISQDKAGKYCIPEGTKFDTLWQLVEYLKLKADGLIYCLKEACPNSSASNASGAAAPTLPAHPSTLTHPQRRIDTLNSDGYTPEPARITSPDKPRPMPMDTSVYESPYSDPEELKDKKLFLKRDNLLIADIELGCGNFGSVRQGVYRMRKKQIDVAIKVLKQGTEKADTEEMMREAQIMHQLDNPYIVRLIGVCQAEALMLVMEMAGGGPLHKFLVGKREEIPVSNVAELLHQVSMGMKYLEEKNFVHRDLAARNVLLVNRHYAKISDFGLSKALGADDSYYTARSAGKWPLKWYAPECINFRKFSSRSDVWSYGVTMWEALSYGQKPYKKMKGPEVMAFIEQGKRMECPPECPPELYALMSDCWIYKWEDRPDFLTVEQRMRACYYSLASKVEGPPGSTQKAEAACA
assay: Kinase inhibition assay (33P transfer), Zap-70
Assay type: biochemical
conditions: read-out: Zap-1
# key: entry, value: IC50

- compound: "CC(C)(C)c1cc(Nc2ncnc(Nc3ccc(C(N)=O)cc3)n2)[nH]n1 [Compound 502]"
  IC50: "> 12.8 µM"
- compound: "COc1ccc(-c2cn[nH]c2Nc2ncnc(Nc3cc(OC)c(OC)c(OC)c3)n2)cc1OC [Compound 470]"
  IC50: "> 9.38 µM"
- compound: "COc1ccc(Nc2ncnc(N(C)c3ccc(Cl)c(Cl)c3)n2)cc1OC [Compound 758]"
  IC50: "> 11.1 µM"
- compound: "Nc1nc2ccccc2n1-c1ncnc(Nc2ccc(S(N)(=O)=O)cc2)n1 [Compound 923]"
  IC50: "> 11.8 µM"
- compound: "O=C(O)Cc1cccc(Nc2ncnc(Nc3cc(-c4ccccc4)n[nH]3)n2)c1 [Compound 981]"
  IC50: "> 11.6 µM"
- compound: "CCN(CC)CCOc1cc(Nc2ncnc(-n3c(N)nc4ccccc43)n2)ccc1OC [Compound 649]"
  IC50: "> 10 µM"
- compound: "COc1cc(Nc2ncnc(-n3c(NCc4ccc(N(C)C)cc4)nc4ccccc43)n2)cc(OC)c1OC [Compound 593]"
  IC50: "> 8.55 µM"
- compound: "c1ccc(Cn2ncc3cc(Nc4ncnc(NCC5CCCCC5)n4)ccc32)cc1 [Compound 727]"
  IC50: "5.8 to 8.46 µM"
- compound: "CCN(CC)c1ccc(Nc2ncnc(N3CCCc4cc(C)ccc43)n2)cc1 [Compound 779]"
  IC50: "> 11.6 µM"
- compound: "COc1cc(Nc2ncnc(-c3cccnc3NCc3ccc(F)cc3)n2)cc(OC)c1OCCN1CCOCC1 [Compound 564]"
  IC50: "> 8.01 µM"
- compound: "CN(C)c1ccc(Nc2ncnc(-n3c(N)nc4ccccc43)n2)cc1 [Compound 527]"
  IC50: "> 13 µM"
- compound: "COc1cc(Nc2ncnc(-n3c(NC(CCO)c4ccccc4)nc4ccccc43)n2)cc(OC)c1OC (centres unmarked) [Compound 591]"
  IC50: "> 8.53 µM"
- compound: "CC(=O)Nc1ccc(Nc2ncnc(-n3c(N)nc4ccccc43)n2)cc1 [Compound 475]"
  IC50: "> 12.5 µM"
- compound: "Nc1nc2ccccc2n1-c1ncnc(Nc2ccc(-c3ccccc3)cc2)n1 [Compound 480]"
  IC50: "1.05 to 6.33 µM"
- compound: "COc1cc(Nc2ncnc(-n3c(NCc4cccc(Br)c4)nc4ccccc43)n2)cc(OC)c1OC [Compound 946]"
  IC50: "> 8 µM"
- compound: "CCN(CC)C(=O)C1CCCN(c2ncnc(Nc3cc(OC)c(OC)c(OC)c3)n2)C1 (centres unmarked) [Compound 615]"
  IC50: "> 10.1 µM"
- compound: "COC(=O)c1ccc(-c2cc(Nc3ncnc(Nc4ccc(CO)cc4)n3)[nH]n2)cc1 [Compound 989]"
  IC50: "> 10.8 µM"
